Test system: NF-kB reporter in Jurkat cells
Experiment: NF-kB reporter assay in Jurkat cells stimulated with aCD3/aCD28/PMA
Type: cell-based
Conditions: Homo sapiens; Jurkat cells, 1 hr compound pre-incubation, aCD3/aCD28/PMA stimulation 4 hr, One-Glo readout; read-out: NF-kB Reporter Assay IC50
reported_property: IC50

INSERT INTO measurements (structure_string, tested_on, reported_property, result) VALUES
  ('CCc1ccc2cnn(C)c2c1NS(=O)(=O)c1cn(-c2ccnc(C(F)(F)F)c2)nc1C', 'NF-kB reporter in Jurkat cells', 'IC50', '400 to 1000 nM'),
  ('CCc1ccc2cnn(C)c2c1NS(=O)(=O)c1cn(-c2ccnc(C(F)(F)F)c2)nn1', 'NF-kB reporter in Jurkat cells', 'IC50', '> 2500 nM'),
  ('CC[C@@](C)(O)c1ccnc(-n2cc(S(=O)(=O)Nc3cccc4cnn(C)c34)cn2)c1', 'NF-kB reporter in Jurkat cells', 'IC50', '< 400 nM'),
  ('[2H]C([2H])([2H])n1ncc2ccc(OC)c(N(C)S(=O)(=O)c3cnn(-c4cc(C(F)(F)F)ccn4)c3)c21', 'NF-kB reporter in Jurkat cells', 'IC50', '< 400 nM'),
  ('COCCn1ncc2cccc(NS(=O)(=O)c3cnn(-c4cc(C(F)(F)F)ccn4)c3)c21', 'NF-kB reporter in Jurkat cells', 'IC50', '> 2500 nM'),
  ('COCC(F)(F)c1ccnc(-n2cc(S(=O)(=O)Nc3cccc4cnn(C)c34)cn2)c1', 'NF-kB reporter in Jurkat cells', 'IC50', '< 400 nM'),
  ('COC1(C)CN(c2ccnc(-n3cc(S(=O)(=O)Nc4cccc5cnn(C)c45)cn3)c2)C1', 'NF-kB reporter in Jurkat cells', 'IC50', '< 400 nM');

====

Molecular target: Avi-tagged FL MALT-1 (Homo sapiens (Human), UniProt Q9UDY8)
Sequence (Q9UDY8 whole entry): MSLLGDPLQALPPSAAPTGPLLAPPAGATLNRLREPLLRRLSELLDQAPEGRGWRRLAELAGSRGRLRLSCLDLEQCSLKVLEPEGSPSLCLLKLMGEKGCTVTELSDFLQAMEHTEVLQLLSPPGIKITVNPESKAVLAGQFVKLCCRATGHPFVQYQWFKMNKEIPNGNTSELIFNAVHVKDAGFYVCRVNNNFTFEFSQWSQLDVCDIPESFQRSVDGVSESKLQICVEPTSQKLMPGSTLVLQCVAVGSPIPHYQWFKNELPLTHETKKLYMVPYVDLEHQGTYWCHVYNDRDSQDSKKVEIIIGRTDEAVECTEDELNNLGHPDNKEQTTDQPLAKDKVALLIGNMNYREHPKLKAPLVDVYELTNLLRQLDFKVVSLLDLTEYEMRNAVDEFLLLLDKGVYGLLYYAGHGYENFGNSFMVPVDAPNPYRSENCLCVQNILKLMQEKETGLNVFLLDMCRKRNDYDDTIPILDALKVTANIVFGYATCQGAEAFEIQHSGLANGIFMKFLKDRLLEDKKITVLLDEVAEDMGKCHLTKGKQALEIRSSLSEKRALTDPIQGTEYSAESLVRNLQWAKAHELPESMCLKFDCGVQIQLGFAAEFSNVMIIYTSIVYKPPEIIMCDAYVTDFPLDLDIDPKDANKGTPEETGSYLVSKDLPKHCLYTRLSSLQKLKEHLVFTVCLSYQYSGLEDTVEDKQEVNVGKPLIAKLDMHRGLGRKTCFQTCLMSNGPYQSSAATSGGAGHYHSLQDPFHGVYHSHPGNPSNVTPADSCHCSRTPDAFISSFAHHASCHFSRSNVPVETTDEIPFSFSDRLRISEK
pIC50: −log10 of the molar value.
Below, each entry is listed alongside its reported pIC50.
reported_property: pIC50

INSERT INTO measurements (molecule, tested_on, reported_property, result) VALUES
  ('Cn1ncc2cccc(NS(=O)(=O)c3cnn(-c4cccc(C(F)(F)F)n4)c3)c21 [Compound I-13]', 'Avi-tagged FL MALT-1 (Homo sapiens (Human), UniProt Q9UDY8)', 'pIC50', '< 5.60'),
  ('COc1ncc2cnn(C)c2c1NS(=O)(=O)c1cnn(-c2cc(N3CC[C@@H](F)C3)ccn2)c1 [Compound I-427]', 'Avi-tagged FL MALT-1 (Homo sapiens (Human), UniProt Q9UDY8)', 'pIC50', '< 5.60'),
  ('CCc1ccc2cnn(C)c2c1NS(=O)(=O)c1cn(-c2ccnc(C(F)(F)F)c2)nn1 [Compound I-27]', 'Avi-tagged FL MALT-1 (Homo sapiens (Human), UniProt Q9UDY8)', 'pIC50', '6.00 to 6.40'),
  ('COc1ccc2cnn(C)c2c1NS(=O)(=O)c1cnn(-c2cc(N3CC(C#N)C3)ccn2)c1 [Compound I-454]', 'Avi-tagged FL MALT-1 (Homo sapiens (Human), UniProt Q9UDY8)', 'pIC50', '< 5.60'),
  ('COc1ncc2cnn(C)c2c1NS(=O)(=O)c1cnn(-c2cc(N3CCCCC3)ccn2)c1 [Compound I-387]', 'Avi-tagged FL MALT-1 (Homo sapiens (Human), UniProt Q9UDY8)', 'pIC50', '< 5.60'),
  ('COc1ncc2cnn(C)c2c1NS(=O)(=O)c1cnn(-c2cc(N3CC[C@H](F)C3)ccn2)c1 [Compound I-426]', 'Avi-tagged FL MALT-1 (Homo sapiens (Human), UniProt Q9UDY8)', 'pIC50', '< 5.60'),
  ('COC[C@H](OC)c1ccnc(-n2cc(S(=O)(=O)Nc3cccc4cnn(C)c34)cn2)c1 [Compound I-342]', 'Avi-tagged FL MALT-1 (Homo sapiens (Human), UniProt Q9UDY8)', 'pIC50', '< 5.60');
